Tested on: HEL cells
procedure.summary: Cytotoxicity, cell morphology
Format: cell-based, human
stated.conditions: Table 3 (cytomegalovirus assays), exp. 1 and exp. 2
Recorded Cytotoxicity Cell morphology MCC, one value per entry.

Here's what some known entries look like.
compound	Cytotoxicity Cell morphology MCC
CCOP(=O)(OCC)[C@@H]1C[C@@H](C(=O)Nc2cc3c4c(cccc4c2)C(=O)N(CCN2CCCC2)C3=O)ON1C (racemic) [trans-9f]	100 μM
CCCN1C(=O)c2cccc3cc(NC(=O)[C@H]4C[C@@H](P(=O)(OCC)OCC)N(C)O4)cc(c23)C1=O (racemic) [cis-9a]	>100 μM
Nc1nc2c(ncn2COC(CO)CO)c(=O)[nH]1 [Ganciclovir, ganciclovir, reference compound]	>350 μM

Complete the entry with Cytotoxicity Cell morphology MCC for Nc1ccn(C[C@@H](CO)OCP(=O)(O)O)c(=O)n1.O.O [Cidofovir, cidofovir, reference compound]
>350 μM

Complete the entry with Cytotoxicity Cell morphology MCC for CCOP(=O)(OCC)[C@@H]1C[C@H](C(=O)Nc2cc3c4c(cccc4c2)C(=O)N(CCN2CCCC2)C3=O)ON1C (racemic) [cis-9f]
>100 μM

Complete the entry with Cytotoxicity Cell morphology MCC for CCOP(=O)(OCC)[C@@H]1C[C@@H](C(=O)Nc2cc3c4c(cccc4c2)C(=O)N(CC(C)C)C3=O)ON1C [trans-9c]
>100 μM

Complete the entry with Cytotoxicity Cell morphology MCC for CCOP(=O)(OCC)[C@@H]1C[C@@H](C(=O)Nc2cc3c4c(cccc4c2)C(=O)N(CCN(C)C)C3=O)ON1C (racemic) [trans-9d]
100 μM
